- Test system: A549
- Test Description: Antiproliferative activity against human A549 cells assessed as cell viability by SRB assay
- Assay type: functional, cell-based
Observation Type: IC50 (nM)

CCN(CC)CCCNc1ccc2c(c1)c1[nH]c3ccccc3c1c[n+]2C = 200

----------
- Test system: SW-620
- Test Description: Cytotoxicity against human SW-620 cells assessed as cell viability incubated for 96 hrs by CellTiter 96 aqueous Non-Radioactive cell proliferation assay
- Type: functional, cell-based
- Cond: SW-620, 96 h
pIC50: −log10 of the molar value.
Observation Type: pIC50

O=C(OCCCN1CCCCC1)c1ccc2c(c1)c1c(c(=O)c3ccccc3n1CCCN1CCCCC1)n2CCCN1CCCCC1 = 6.52

----------
- Test Description: Antiproliferative activity against telomerase negative human lung fibroblast assessed as cell viability by SRB assay
- Format: functional, cell-based
pIC50: −log10 of the molar value.
Observation Type: pIC50

CCN(CC)CCCNc1ccc2c(c1)c1[nH]c3ccccc3c1c[n+]2C = 6.70

----------
Reported ΔTm values follow for various compounds
- Test Description: Thermal stabilization of hybrid G4 telo21 DNA (unknown origin) assessed as melting temperature by FRET method
Observation Type: ΔTm (°C)

CN(C)CCCNc1c2ccccc2[n+](C)c2c1[nH]c1ccc(F)cc12 = 14
COc1ccc2c(ccc3c2[nH]c2c4ccccc4nc(NCCCN(C)C)c32)c1 = 10
CN(C)CCCNc1nc2ccccc2c2[nH]c3c4cc([N+](=O)[O-])ccc4ccc3c12 = 11
CC1CCN(CCCN2/C(=C/c3c4ccccc4[n+](C)c4c3oc3ccccc34)Sc3ccccc32)CC1 = 7
C[n+]1c2ccccc2c(/C=C2\Sc3ccccc3N2CCCN2CCCCC2)c2oc3ccccc3c21 = 25
COc1ccc2ccc3c([nH]c4c5ccccc5nc(NCCCN(C)C)c34)c2c1 = 11
C[n+]1cc2c3ccccc3[nH]c2c2cc(Br)ccc21 = 6
CCN(CC)CCCNc1ccc2c(c1)c1[nH]c3ccccc3c1c[n+]2C = 18
